Recorded values, source ChEMBL document CHEMBL1132782.

target: Prothrombin (Homo sapiens) (UniProt P00734); assay: Inhibitory activity against human thrombin
assay_metric: K ass

- COc1cc(Cc2c(-c3ccc(OCCN4CCCC4)cc3)sc3cc(O)ccc23)ccc1CN1CCCC1: 8.15e+08 l M-1
- c1ccc2c(c1)nc(-c1ccc(OCCN3CCCC3)cc1)n2Cc1ccc(OCCN2CCCC2)cc1: 332000 l M-1
- COc1cc(Cc2c(-c3ccc(OCCCCO)cc3)sc3ccccc23)ccc1CN1CCCC1: 1.49e+07 l M-1
- COc1cc(Cn2c(-c3ccc(OCCN4CCCC4)cc3)nc3cc(O)ccc32)ccc1Cn1cccn1: 1.2e+07 l M-1

Consider now this further compound.
In: API: value(readout= K ass, system= Prothrombin (Homo sapiens) (UniProt P00734), query= `COc1cc(Cn2c(-c3ccc(OCCN4CCCC4)cc3)nc3cc(O)ccc32)ccc1NCc1ccccc1` )
Out: 1.65e+07 l M-1

###

target: Prothrombin (Homo sapiens) (UniProt P00734); experiment: Inhibitory activity against human thrombin
assay_metric: K ass

In: Data request, read-out K ass, for `c1ccc2c(Cc3ccc(OCCN4CCCC4)cc3)c(-c3ccc(OCCN4CCCC4)cc3)[nH]c2c1`
Out: 42000 l M-1

In: Which K ass value is on record for `O=C(c1ccc(OCCN2CCCC2)cc1)c1c(-c2ccc(OCCN3CCCC3)cc2)sc2ccccc12` ?
Out: 410000 l M-1

In: Need K ass of `COc1cc(Cc2c(-c3ccc(OCCN4CCCC4)cc3)sc3ccccc23)ccc1CN1CCCC1` , thanks.
Out: 1.26e+08 l M-1

###

biological target: Prothrombin (Homo sapiens) (UniProt P00734); experiment: Inhibitory activity against human thrombin
assay_metric: K ass

- COC(=O)CCCOc1ccc(-c2sc3ccccc3c2Cc2ccc(CN3CCCC3)c(OC)c2)cc1: 7.68e+06 l M-1
- COc1cc(Cn2c(-c3ccc(OCCN4CCCC4)cc3)cc3cnccc32)ccc1CN1CCCC1: 7.39e+07 l M-1
- COc1cc(Cn2c(-c3ccc(OCCN4CCCC4)cc3)nc3cc(CN)ccc32)ccc1CN1CCCC1: 4.49e+06 l M-1

In: # value lookup — system Prothrombin (Homo sapiens) (UniProt P00734), readout K ass, item `c1ccc2c(c1)cc(-c1ccc(OCCN3CCCC3)cc1)n2Cc1ccc(OCCN2CCCC2)cc1`
Out: 6.27e+06 l M-1

###

In this section we review reported K ass values for a set of molecules.
biological target: Prothrombin (Homo sapiens); assay: Inhibitory activity against human thrombin

In: Entry `COc1cc(Cn2c(-c3ccc(OCCN4CCCC4=O)cc3)nc3ccccc32)ccc1CN1CCCC1` has what K ass?
Out: 1.5e+07 l M-1

In: Entry under review: `COc1cc(Cn2c(-c3ccc(OCCCC(=O)O)cc3)cc3ccccc32)ccc1CN1CCCC1` . Reported K ass?
Out: 6.41e+06 l M-1

In: For the molecule shown here, `COc1cc(Cn2c(-c3ccc(OCCN4CCCC4)cc3)nc3ccccc32)ccc1CN1CCCC1` , give the reported K ass.
Out: 1.19e+07 l M-1

In: Which K ass reading was recorded for the molecule `COc1cc(Cn2c(-c3ccc(OCCN4CCCC4)cc3)nc3cc(O)ccc32)ccc1Cn1ccnc1` ?
Out: 9.6e+06 l M-1

In: Return reported K ass; argument: `COc1cc(Cn2c(-c3ccc(OCCN4CCCC4)cc3)nc3cc(O)ccc32)ccc1Cn1ccnn1`
Out: 1.02e+07 l M-1

In: Can you share its K ass? I mean this molecule: `COc1cc(Cn2c(-c3ccc(OCCN4CCCC4)cc3)cc3ccccc32)ccc1CN1CCCC1`
Out: 1.97e+08 l M-1

In: Form field: reported K ass of `COc1cc(Cn2c(-c3ccc(OCCN4CCCC4)cc3)cc3ccncc32)ccc1C(=O)N1CCCC1`
Out: 5.97e+07 l M-1

In: Using the record for `COC(=O)CCCOc1ccc(-c2cc3ccccc3n2Cc2ccc(CN3CCCC3)c(OC)c2)cc1` , report its K ass.
Out: 2.47e+07 l M-1

In: // K ass lookup, key: `COc1cc(Cn2c(-c3ccc(OCCN4CCCC4)cc3)nc3cc(CO)ccc32)ccc1CN1CCCC1`
Out: 1.93e+06 l M-1

In: May I ask what K ass has been recorded for `COc1cc(Cn2c(-c3ccc(OCCN4CCCC4)cc3)nc3cc(O)ccc32)ccc1CN1CCCC1` ?
Out: 9.72e+06 l M-1
